Numbers sourced from patent US9624239B2.

Target: histidine tagged recombinant Human Lymphocyte-Specific Protein Tyrosine Kinase (Lck) (Homo sapiens, UniProt P06239)
Construct: histidine tag
Sequence (P06239 whole entry): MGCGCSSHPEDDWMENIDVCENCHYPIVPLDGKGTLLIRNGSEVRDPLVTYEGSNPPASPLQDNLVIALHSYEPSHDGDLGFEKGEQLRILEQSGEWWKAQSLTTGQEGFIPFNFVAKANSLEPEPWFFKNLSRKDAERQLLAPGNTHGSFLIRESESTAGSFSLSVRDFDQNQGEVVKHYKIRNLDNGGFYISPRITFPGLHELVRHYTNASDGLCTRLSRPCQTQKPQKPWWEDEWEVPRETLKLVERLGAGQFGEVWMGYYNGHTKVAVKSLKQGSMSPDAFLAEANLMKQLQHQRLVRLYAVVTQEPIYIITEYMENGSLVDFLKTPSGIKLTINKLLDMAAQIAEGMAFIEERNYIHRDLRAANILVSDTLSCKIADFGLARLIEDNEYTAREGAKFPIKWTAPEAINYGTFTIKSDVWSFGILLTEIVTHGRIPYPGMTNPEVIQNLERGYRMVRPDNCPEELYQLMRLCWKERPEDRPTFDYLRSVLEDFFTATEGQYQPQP
Assay: Lck kinase inhibition assay (fluorescence polarization, KinEASE FP Fluorescein Green)
Type: biochemical
Conditions: 10 μM ATP, 250 μM substrate, 60 minutes, room temperature; Ki from IC50 by Cheng-Prusoff
measured parameter: Ki

For orientation, consider the following solved cases.
compound	Ki
COc1cc(-n2c3c(c4ncnc(N)c42)CCC3)ccc1Oc1ccccc1	< 100 nM
Nc1ncnc2c3c(n(-c4ccc(Oc5ccccc5)cc4)c12)COC3CCCOCc1ccccc1 (stereo not drawn)	< 1000 nM
CC1OCc2c1c1ncnc(N)c1n2-c1ccc(Oc2cccc(OCc3ccncc3)c2)cc1 (stereo not drawn)	< 100 nM
Nc1ncnc2c3c(n(-c4ccc(Oc5ccccc5)cc4)c12)COC3	< 100 nM
CC1OCc2c1c1ncnc(N)c1n2-c1ccc(Oc2cccc(OCc3ccccc3)c2)cc1 (stereo not drawn)	< 100 nM

Each compound below has a recorded value; state its Ki.
1. Nc1ncnc2c3c(n(-c4ccc(Oc5ccccc5)cc4)c12)COC3CCCO (stereo not drawn)
2. CC1OCc2c1c1ncnc(N)c1n2-c1ccc(Oc2cccc(C(N)=O)c2)cc1 (stereo not drawn)
3. COc1cc(F)cc(Oc2ccc(-n3c4c(c5ncnc(N)c53)C(C)OC4)cc2)c1 (stereo not drawn)
4. CC1OCc2c1c1ncnc(N)c1n2-c1ccc(Oc2cccc(O)c2)cc1 (stereo not drawn)

Reply:
1: < 100 nM; 2: > 1000 nM; 3: < 100 nM; 4: < 100 nM

For every record below, what is its Ki?
1. CCN1CCc2c(c3ncnc(N)c3n2-c2ccc(Oc3ccccc3)cc2)C1
2. CC1OCc2c1c1ncnc(N)c1n2-c1ccc(Oc2ccccc2C(N)=O)cc1 (stereo not drawn)
3. CC1OCc2c1c1ncnc(N)c1n2-c1ccc(Oc2cccc(OCc3cccnc3)c2)cc1 (stereo not drawn)
4. Nc1ncnc2c3c(n(-c4ccc(Oc5ccc(Cl)cc5)cc4)c12)CCC3
5. CC1OCc2c1c1ncnc(N)c1n2-c1ccc(Oc2ccc(F)cc2)cc1 (stereo not drawn)

Reply:
1. < 100 nM
2. < 1000 nM
3. < 100 nM
4. < 1000 nM
5. < 1000 nM

// each listed compound needs a value for Ki
1. Nc1ncnc2c3c(n(-c4ccc(Oc5ccccc5)cc4)c12)CN(S(=O)(=O)c1ccccc1)C3
2. CC1OCc2c1c1ncnc(N)c1n2-c1ccc(Oc2cccc(C(F)(F)F)c2)cc1 (stereo not drawn)
3. COc1ccccc1Oc1ccc(-n2c3c(c4ncnc(N)c42)C(C)OC3)cc1 (stereo not drawn)
4. CC1OCc2c1c1ncnc(N)c1n2-c1ccc(Oc2ccccc2)cc1 (stereo not drawn)

Reply:
["< 1000 nM", "< 1000 nM", "< 1000 nM", "< 100 nM"]
